Assay: Oral pharmacokinetic test in mice
Details: male, C57, mouse, in vivo, 10 mg/kg
property_name: Tmax
Remember to put the unit after the number in your answer.

Data request, read-out Tmax, for N#CCC1(n2cc(-c3ncnc4[nH]ccc34)cn2)CCC(F)(F)CC1 19.8 min

----------
Experiment: Oral pharmacokinetic test in mice
Settings: male, C57, mouse, in vivo, 10 mg/kg
property_name: AUC(0-inf)
Remember to put the unit after the number in your answer.

Data request, read-out AUC(0-inf), for N#CCC1(n2cc(-c3ncnc4[nH]ccc34)cn2)CCC(F)(F)CC1 2150 ng·h/mL

----------
Test: in vivo
Details: male, C57, mouse, po, 10 mg/kg
Exercise: state measured half-life for each of the molecules provided.

Data request, read-out half-life, for N#CCC(C1CCC(C(F)(F)F)CC1)n1cc(-c2ncnc3[nH]ccc23)cn1 (stereo not shown) 1.36 h

Data request, read-out half-life, for N#CC[C@@H](CCC(F)(F)F)n1cc(-c2ncnc3[nH]ccc23)cn1 0.84 h

Data request, read-out half-life, for N#CC[C@H](CCC(F)(F)F)n1cc(-c2ncnc3[nH]ccc23)cn1 0.74 h

Data request, read-out half-life, for N#CCC(C1CC(F)(F)C1)n1cc(-c2ncnc3[nH]ccc23)cn1 (stereo not shown) 1.49 h

----------
Exercise: state measured Tmax for each of the compounds provided.
Experiment: in vivo
Settings: male, C57, mouse, po, 10 mg/kg
Value expressed in min; do not type the unit.

Data request, read-out Tmax, for N#CCC(C1CCC(C(F)(F)F)CC1)n1cc(-c2ncnc3[nH]ccc23)cn1 (stereo not shown) 15

Data request, read-out Tmax, for N#CC[C@H](CCC(F)(F)F)n1cc(-c2ncnc3[nH]ccc23)cn1 4.8

Data request, read-out Tmax, for N#CC[C@@H](CCC(F)(F)F)n1cc(-c2ncnc3[nH]ccc23)cn1 15

Data request, read-out Tmax, for N#CCC(C1CC(F)(F)C1)n1cc(-c2ncnc3[nH]ccc23)cn1 (stereo not shown) 4.8

----------
Experiment: in vivo
Conditions: male, C57, mouse, po, 10 mg/kg
property_name: Cmax (ng/mL)
Value expressed in ng/mL; do not type the unit.

Data request, read-out Cmax, for N#CC[C@@H](CCC(F)(F)F)n1cc(-c2ncnc3[nH]ccc23)cn1 6320

Data request, read-out Cmax, for N#CCC(C1CCC(C(F)(F)F)CC1)n1cc(-c2ncnc3[nH]ccc23)cn1 (stereo not shown) 1410

Data request, read-out Cmax, for N#CCC(C1CC(F)(F)C1)n1cc(-c2ncnc3[nH]ccc23)cn1 (stereo not shown) 3190

Data request, read-out Cmax, for N#CC[C@H](CCC(F)(F)F)n1cc(-c2ncnc3[nH]ccc23)cn1 6770

----------
Experiment: in vivo
Settings: male, C57, mouse, po, 5 mg/kg
property_name: MRT inf (min)
Value expressed in min; do not type the unit.

Data request, read-out MRT inf, for N#CC[C@H](C1CCCC1)n1cc(-c2ncnc3[nH]ccc23)cn1 [Ruxolitinib, reference compound] 42.6

----------
Experiment: in vivo
Conditions: male, C57, mouse, po, 10 mg/kg
Exercise: state measured MRT inf for each of the compounds provided.
Value expressed in min; do not type the unit.

Data request, read-out MRT inf, for N#CCC(C1CC(F)(F)C1)n1cc(-c2ncnc3[nH]ccc23)cn1 (stereo not shown) [Compound 7] 30.6

Data request, read-out MRT inf, for N#CC[C@H](CCC(F)(F)F)n1cc(-c2ncnc3[nH]ccc23)cn1 [Compound 6-2] 36.6

Data request, read-out MRT inf, for N#CCC(C1CCC(C(F)(F)F)CC1)n1cc(-c2ncnc3[nH]ccc23)cn1 (stereo not shown) [Compound 5] 78.6

Data request, read-out MRT inf, for N#CC[C@@H](CCC(F)(F)F)n1cc(-c2ncnc3[nH]ccc23)cn1 [Compound 6-1] 69

Measured values drawn from patent US20250136608A1 for this set.
